Hello, the source for this data is PubChem BioAssay (NCI), in case you need it.

# growth inhibition per record follows
Assay: NCI Yeast Anticancer Drug Screen. Data for the bub3 strain (AID 167)
Details: S. cerevisiae bub3 mutant strain, at 5.0 µM (retest, dose inferred, filed as 0.5), stronger effect = higher value
This is part of a sample that, as a whole, favours compounds with a hit. Of some 79,000 tested, about 15% had one in any assay. Active and inactive are the calls of the source. No stated cut-off is given here; in the data, active means growth inhibition above about 70%; inactive means the rest.

CC(C)c1cc([N+](=O)[O-])cc([N+](=O)[O-])c1O : -4% (inactive)
CCC[CH2][Sn]1([CH2]CCC)[O]CC(COc2c(Cl)cc(Cl)cc2Cl)[O]1 (stereo unspecified) : 89% (active)
OC1CCCC2CCCNC12 (stereo unspecified) : 96% (active)
CC(=O)[C-](Cl)C(C)=O.CC(=O)[C-](Cl)C(C)=O.CC(=O)[C-](Cl)C(C)=O.[Ru+3] : -1% (inactive)
NC1=NC(=O)N2CC12 (stereo unspecified) : 21% (inactive)

What measured growth inhibition goes with CC(=O)OCC12CC(O)C(C)=CC1OC1C(O)C(OC(C)=O)C2(C)C12CO2 (stereo unspecified) ? 8% (inactive)

Quick one: growth inhibition of C/C(=N\Nc1ccccc1)C(CN(C)C)C(c1ccccc1)c1c(O)c2ccccc2oc1=O (stereo unspecified) ? 10% (inactive)

###

Assay: NCI Yeast Anticancer Drug Screen. Data for the bub3 strain (AID 167)
Details: S. cerevisiae bub3 mutant strain, at 50.0 µM, stronger effect = higher value
Compounds without any hit were thinned out: in the full panel of roughly 79,000, 15% have a hit.
endpointLabel: growth inhibition (%)
Numeric answer only, unit % assumed.

Past entries and their recorded results:
CNC(C)Cc1ccccc1OC (configuration not stated) (tested in a mixture with another compound) : 9.55
Cc1cc(OC(=O)N(CCCl)CCCl)c(C(C)C)cc1N=O : 18.8
CC(=O)c1ccccc1O.[Cr] : -18.3
C=C(C)[C@H]1CN[C@H](C(=O)O)[C@H]1CC(=O)O : -6.5
CNN : -1.8
Cc1ccc2[nH]cc(CCN(C)C)c2c1 : 10.2

Could you now look at the following molecule, please?
Please give the measured growth inhibition for this molecule: CCC1(c2ccccc2)C(=O)N(C)C(=O)N(CCCl)C1=O (configuration not stated) 22.3

###

Experiment: NCI Yeast Anticancer Drug Screen. Data for the sgs1 mgt1 strain (AID 161);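 further: 0% = growth of cultures given vehicle only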
Settings: S. cerevisiae sgs1 mgt1 strain, at 50.0 µM
About 79,000 compounds went through this panel and 15% of them were active in at least one assay; those are over-represented in the sample as a whole. Active and inactive are the calls of the source. Cut-off read from the data, not from the text of the source: active = growth inhibition above about 70%; inactive = the rest.
Thanks in advance; please answer with one of these: 1 for active, 0 for inactive

# example entries with known answers
NC(P(=O)(O)O)P(=O)(O)O : 0
Cc1nnnn1C : 0
O=C1C2C(C(=O)N1c1ccc(O)cc1)C1(Cl)C(Cl)=C(Cl)C2(Cl)C1(Cl)Cl (stereo unspecified) : 0
CC(Cc1ccc(O)cc1)NCC(O)c1ccc(O)c(O)c1 (stereo unspecified) : 0
O=c1cc(O)c1=O : 0
CC1=C[C@H]2[C@@]3(O)[C@H](C)C[C@]4(OC(=O)C(C)C)[C@H]([C@@H]3C=C(CO)C[C@]2(O)C1=O)C4(C)C : 0
[Cl][Pt+2][Cl].[NH-]c1ccc(Cl)cc1[NH-] : 0
CCCC(C)(COC(N)=O)COC(=O)NC1CC1 (stereo unspecified) : 0

// return assay outcome for CC1(C)SC2C(NC(=O)Cc3ccccc3)C(=O)N2C1C(=O)O (stereo unspecified) 0

Kindly provide the recorded test outcome for the following compound: CO[As](OC)c1ccc(N=Nc2ccc(N(C)C)cc2)cc1 1

Which outcome did this test record for the compound N#CN(Cc1ccccc1)C(c1ccccc1)(c1ccccc1)c1ccccc1.[I][Sn]([c]1ccccc1)([c]1ccccc1)[c]1ccccc1 ? 1

###

Assay: NCI Yeast Anticancer Drug Screen. Data for the mec2-1 strain (AID 157)
Settings: S. cerevisiae mec2-1 strain, at 50.0 µM, stronger effect = higher value
The panel holds about 79,000 compounds, 15% with a hit somewhere; the sample as a whole holds those more often.
Reported growth inhibition values follow for various compounds
Express your answer in %, writing the number without its unit.

# count of solved cases: 4
CC(Cl)C(=O)OC(C)C(=O)O (stereo not given) : 17.1
Cc1nc(N)nc(N)c1CCCOc1ccc(NC(=O)c2cccc(S(=O)(=O)F)c2)cc1 : 25.9
O=C(Cl)OCCOCCOC(=O)Cl : -6.1
N#CCc1ccc(Br)cc1 : 0.8

# growth inhibition lookup, item COc1ccc(CCN(C)Cc2cccc(OC)c2OC)cc1OC -5.85

Give its growth inhibition value. Item: Cc1c[n+]2ccc3ccccc3c2c2ccccc12 -10.9

Suppose we examine the compound CC1c2[nH]c3ccccc3c2CCN1C (stereo not given) ; what growth inhibition value has been reported? -21.7

Given CCOC(=O)/C(=C\c1ccc(OC)cc1)[Se]c1ccccc1 , state its recorded growth inhibition. -11

###

Test: NCI Yeast Anticancer Drug Screen. Data for the sgs1 mgt1 strain (AID 161);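 further: 0% = growth of cultures given vehicle only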
Conditions: S. cerevisiae sgs1 mgt1 strain, at 50.0 µM, stronger effect = higher value
The panel holds about 79,000 compounds, 15% with a hit somewhere; the sample as a whole holds those more often. The source made the active and inactive calls. No stated cut-off is given here; in the data, active means growth inhibition above about 70%; inactive means the rest.
endpointLabel: growth inhibition

C=C1C(=O)O[C@@H]2C[C@@H](C)[C@@H]3C=CC(=O)[C@@]3(C)[C@@H](O)[C@H]12 : 27.5% (inactive)
C/C(=C\c1ccc(Cl)c(Cl)c1)[N+](=O)[O-] : 21% (inactive)
CNC(=O)Oc1cccc2c1C(=O)OC2=O : -6.55% (inactive)

Please report the recorded growth inhibition for C[n+]1ccccc1-c1ccc[n+](CCCC[n+]2cccc(-c3cccc[n+]3C)c2)c1 . -7.5% (inactive)

Give the measured growth inhibition of CC(C)CC1N=C(N(C)N=O)OP1(=O)NNc1ncccn1 (centres undefined) . -15.4% (inactive)

What growth inhibition value was documented for this compound, Cc1ccc(S(=O)(=O)CC([Se]C#N)c2ccccc2)cc1 (centres undefined) ? -15.1% (inactive)

# lookup: growth inhibition of COC(=O)c1cccc2cc3cccc[n+]3cc12 -9.3% (inactive)

# growth inhibition lookup, item COc1ccccc1[As]=[As]c1ccccc1OC (centres undefined) 99.4% (active)

Recorded growth inhibition of CC(C)OC(=S)S.[Cu+2] , please. -2.4% (inactive)

Entry under review: O=[N+]([O-])c1ncccc1NCCN1CCCC1 . Reported growth inhibition? -15.8% (inactive)

Report growth inhibition for O=[N+]([O-])O.c1ccc([As+](c2ccccc2)(c2ccccc2)c2ccccc2)cc1 please. 97% (active)

Would you mind telling me what growth inhibition value was observed for CC1CCC2NCCNC2C1 (centres undefined) ? -8.9% (inactive)

Given the entry NC1CCCCC1.[O]=[Ge].[O]=[Ge].[O]=[Ge][OH].[O]=[Ge][OH] , report its measured growth inhibition. -10.8% (inactive)

Entry under review: O=C([O-])c1ccccc1Nc1ccccn1.O=C([O-])c1ccccc1Nc1ccccn1.[Ni+2] . Reported growth inhibition? -15.6% (inactive)

Requested read-out: growth inhibition. Entry: C[CH2][Sn]1([CH2]C)[O]S(=O)(=O)[O]1 25.4% (inactive)

May I ask what growth inhibition has been recorded for CCOC(=O)C1C(=O)CN2CCc3c([nH]c4ccccc34)C12C(=O)OCC (centres undefined) ? 31.6% (inactive)

Which growth inhibition value is on record for COC1CC2C=C(C)/C=C/C=C/C(=O)NC(c3ccccc3)C/C=C/CCC(O)CC(=O)C2=C1O (centres undefined) ? 92.5% (active)

Bench note: what growth inhibition did NCC#CCNCCCN1CC1 show? -9.4% (inactive)

# lookup: growth inhibition of Cc1ccc(Cl)c([N+](=O)[O-])c1 -30.4% (inactive)

Query: growth inhibition; subject: CC1(C)OP(=O)(O)C=C1[Se]c1ccccc1 24.4% (inactive)

What does the record list as growth inhibition for Nc1ccc(C(=O)O)c(C(=O)O)c1 ? 1.35% (inactive)

GET /values?readout=growth inhibition&item= C[C@]12CCC(=O)N[C@@H]1CC[C@@H]1[C@@H]2CC[C@]2(C)[C@@H](OC(=O)COc3ccc(N(CCCl)CCCl)cc3)CC[C@@H]12 0.15% (inactive)

Return reported growth inhibition; argument: CC(=O)OC1(C#N)CC2OC1C1NC21 (centres undefined) 18.4% (inactive)

Could you tell me which growth inhibition is on file for N/N=C(\N)c1nn[nH]n1 ? -12.7% (inactive)

###

Assay: NCI Yeast Anticancer Drug Screen. Data for the rad50 strain (AID 155);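 further: 0% = growth of vehicle-only cultures of the same strain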
Details: S. cerevisiae rad50 strain growth inhibition; at 50.0 µM; stronger effect = higher value
About 79,000 compounds went through this panel and 15% of them were active in at least one assay; those are over-represented in the sample as a whole.
The entries below come with measured growth inhibition values attached.
Respond with the bare value in %.

O=C1C=Cc2ccccc2C1=O : 83.6
C#CCOC(=O)C=[N+]=[N-] : -11.7
CC(C)(C)OC(=O)NCC(=O)NC(CSC(c1ccccc1)c1ccccc1)C(=O)NCC(=O)O (stereo unspecified) : 8.45

Param item = Cc1ccc(NC(=O)C(=O)C2C(=O)NC(=O)NC2=O)cc1C ; retrieve measured growth inhibition. -4.9

# get_value(readout='growth inhibition', item= COC(=O)C1=C(C)N2CCCOC2(C)C(C(=O)OC)C1c1cccc(Cl)c1 (stereo unspecified) ) 61.4

Item COc1ccc(N2CC=C(c3ccccc3)OP2(=O)N2CC2)cc1 (stereo unspecified) has what recorded growth inhibition? -20.4
